Measured pIC50 values are reported for all entries that follow.
Biological target: Neuropeptide Y receptor type 2 (Homo sapiens, UniProt P49146)
Sequence (P49146 whole entry): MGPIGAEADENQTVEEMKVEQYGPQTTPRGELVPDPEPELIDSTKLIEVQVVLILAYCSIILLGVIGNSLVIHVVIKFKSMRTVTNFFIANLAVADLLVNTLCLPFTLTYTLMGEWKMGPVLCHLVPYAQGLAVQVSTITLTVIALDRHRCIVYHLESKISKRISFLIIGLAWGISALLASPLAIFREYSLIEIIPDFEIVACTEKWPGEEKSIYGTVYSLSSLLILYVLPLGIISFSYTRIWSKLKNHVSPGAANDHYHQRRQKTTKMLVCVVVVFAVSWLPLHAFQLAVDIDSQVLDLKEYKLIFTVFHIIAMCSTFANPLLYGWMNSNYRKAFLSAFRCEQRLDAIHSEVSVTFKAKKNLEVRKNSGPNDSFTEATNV
Test: Displacement of [125I]-PYY from human neuropeptide Y2 receptor expressed in CHO cell membranes incubated for 60 mins by TopCount based method
In simple prose, pIC50 is minus the logarithm base ten of a concentration in moles per litre.

The examples below pair each entry with its known result.
structure	study_system	pIC50
CC[C@@](C)(NC(=O)[C@H](CO)NC(C)=O)C(=O)N[C@@H](CCCNC(=N)N)C(=O)N[C@@H](Cc1ccncc1)C(=O)N[C@@H](CC1CCCCC1)C(=O)NC(C)(C)C(=O)N[C@@H](CC(N)=O)C(=O)N[C@@H](CCCCN)C(=O)NC(C)(C)C(=O)N[C@H](C(=O)N[C@@H](CCCNC(=N)N)C(=O)N[C@@H](CCC(N)=O)C(=O)N[C@@H](CCCNC(=N)N)C(=O)N[C@@H](CC1CCCCC1)C(N)=O)[C@@H](C)O	Neuropeptide Y receptor type 2 (Homo sapiens, UniProt P49146)	9.52
CC[C@@](C)(NC(=O)[C@H](CC(C)C)NC(=O)[C@H](CC(N)=O)NC(=O)[C@H](CC1CCCCC1)NC(=O)[C@H](CC1CCCCC1)NC(=O)[C@H](Cc1cnc[nH]1)NC(=O)[C@H](CCCNC(=N)N)NC(=O)[C@H]1CCCN1C(=O)[C@H](CO)NC(C)=O)C(=O)N[C@H](C(=O)N[C@@H](CCCNC(=N)N)C(=O)N[C@@H](CCC(N)=O)C(=O)N[C@@H](CCCNC(=N)N)C(=O)N[C@@H](CC1CCCCC1)C(N)=O)[C@@H](C)O	Neuropeptide Y receptor type 2 (Homo sapiens, UniProt P49146)	9.17
CC(C)C[C@H](NC(=O)[C@H](CC(N)=O)NC(=O)[C@H](CC1CCCCC1)NC(=O)[C@H](CC1CCCCC1)NC(=O)[C@H](Cc1cnc[nH]1)NC(=O)[C@H](CCCNC(=N)N)NC(=O)[C@H]1CCCN1C(=O)[C@H](CO)NC(=O)CCC(=O)O)C(=O)NC(C)(C)C(=O)N[C@H](C(=O)N[C@@H](CCCNC(=N)N)C(=O)N[C@@H](CCC(N)=O)C(=O)N[C@@H](CCCNC(=N)N)C(=O)N[C@@H](CC1CCCCC1)C(N)=O)[C@@H](C)O	Neuropeptide Y receptor type 2 (Homo sapiens, UniProt P49146)	8.64

From here, focus on the item given below.
Query block: Let me know recorded pIC50 for CC(C)C[C@H](NC(=O)[C@H](CC(N)=O)NC(=O)[C@H](CC1CCCCC1)NC(=O)[C@H](CC1CCCCC1)NC(=O)[C@H](Cc1cnc[nH]1)NC(=O)[C@H](CCCNC(=N)N)NC(=O)[C@H]1CCCN1C(=O)[C@H](CO)NC(=O)CO)C(=O)NC(C)(C)C(=O)N[C@H](C(=O)N[C@@H](CCCNC(=N)N)C(=O)N[C@@H](CCC(N)=O)C(=O)N[C@@H](CCCNC(=N)N)C(=O)N[C@@H](CC1CCCCC1)C(N)=O)[C@@H](C)O , thanks.
Result block: 8.92

* * *

Measured pEC50 values are reported for all entries that follow.
Molecular target: Neuropeptide Y receptor type 2 (Homo sapiens)
Assay: Agonist activity at human neuropeptide Y2 receptor expressed in CHO cell membranes assessed as stimulation of [35S]GTPgammaS binding incubated for 120 mins by liquid scintillation counting method
In simple prose, pEC50 is minus the logarithm base ten of a concentration in moles per litre.

The examples below pair each entry with its known result.
structure	pEC50
CC[C@](C)(NC(=O)[C@H]1C[C@H](O)CN1C(=O)[C@H](CO)NC(=O)c1c[nH]cn1)C(=O)N[C@@H](Cc1ccncc1)C(=O)N[C@@H](CC1CCCCC1)C(=O)N[C@@H](CC(C)(C)C)C(=O)N[C@@H](CC(N)=O)C(=O)N[C@@H](CCCCN)C(=O)NC(C)(C)C(=O)N[C@H](C(=O)N[C@@H](CCCNC(=N)N)C(=O)N[C@@H](CCC(N)=O)C(=O)N[C@@H](CCCNC(=N)N)C(=O)N[C@@H](CC1CCCCC1)C(N)=O)[C@@H](C)O	9.82
CC(C)C[C@H](NC(=O)[C@H](CC(N)=O)NC(=O)[C@H](CC1CCCCC1)NC(=O)[C@H](CC1CCCCC1)NC(=O)[C@H](Cc1cnc[nH]1)NC(=O)[C@H](CCCNC(=N)N)NC(=O)[C@H]1CCCN1C(=O)[C@H](CO)NC(=O)c1ccccc1)C(=O)NC(C)(C)C(=O)N[C@H](C(=O)N[C@@H](CCCNC(=N)N)C(=O)N[C@@H](CCC(N)=O)C(=O)N[C@@H](CCCNC(=N)N)C(=O)N[C@@H](CC1CCCCC1)C(N)=O)[C@@H](C)O	9.10

Query block: Let me know recorded pEC50 for CC[C@](C)(NC(=O)[C@H](CC1CCCCC1)NC(=O)[C@H](Cc1ccncc1)NC(=O)[C@](C)(CC)NC(=O)[C@H]1C[C@H](O)CN1C(=O)[C@H](CO)NC(=O)c1c[nH]cn1)C(=O)N[C@@H](CC(N)=O)C(=O)N[C@@H](CCCCN)C(=O)NC(C)(C)C(=O)N[C@H](C(=O)N[C@@H](CCCNC(=N)N)C(=O)N[C@@H](CCC(N)=O)C(=O)N[C@@H](CCCNC(=N)N)C(=O)N[C@@H](CC1CCCCC1)C(N)=O)[C@@H](C)O , thanks.
Result block: 9.89

* * *

System: Mus musculus
Assay: Anorectic activity in C57BL/6J mouse assessed as inhibition of food intake at 0.3 mg/kg/day, sc dosed as […] and measured after 12 hrs
Type: functional
assay_metric: inhibition in vivo at 0.3 mg/kg/day (%)
Just the number please, in %, no unit attached.

Query block: Let me know recorded inhibition in vivo at 0.3 mg/kg/day for CC[C@](C)(NC(=O)[C@H]1CCCN1C(=O)[C@H](CO)NC(C)=O)C(=O)N[C@@H](Cc1ccncc1)C(=O)N[C@@H](CC1CCCCC1)C(=O)NC(C)(C)C(=O)N[C@@H](CC(N)=O)C(=O)N[C@@H](CCCCN)C(=O)NC(C)(C)C(=O)N[C@H](C(=O)N[C@@H](CCCNC(=N)N)C(=O)N[C@@H](CCC(N)=O)C(=O)N[C@@H](CCCNC(=N)N)C(=O)N[C@@H](CC1CCCCC1)C(N)=O)[C@@H](C)O , thanks.
Result block: 22

Query block: Let me know recorded inhibition in vivo at 0.3 mg/kg/day for CC[C@](C)(NC(=O)[C@H](CC1CCCCC1)NC(=O)[C@H](Cc1ccncc1)NC(=O)[C@](C)(CC)NC(=O)[C@H]1C[C@H](O)CN1C(=O)[C@H](CO)NC(C)=O)C(=O)N[C@@H](CC(N)=O)C(=O)N[C@@H](CCCCN)C(=O)NC(C)(C)C(=O)N[C@H](C(=O)N[C@@H](CCCNC(=N)N)C(=O)N[C@@H](CCC(N)=O)C(=O)N[C@@H](CCCNC(=N)N)C(=O)N[C@@H](CC1CCCCC1)C(N)=O)[C@@H](C)O , thanks.
Result block: 38

* * *

Measured Vd values are reported for all entries that follow.
Assay: Volume of distribution at steady state in C57BL/6J mouse at 1 mg/kg, iv measured during 5 mins to 24 hrs by LC/MS/MS method
Type: ADME, organism-based
Details: in vivo, read-out: Vdss
Just the number please, in L/kg, no unit attached.

The examples below pair each entry with its known result.
structure	assay_value
CC[C@](C)(NC(=O)[C@H](CC1CCCCC1)NC(=O)[C@H](Cc1ccncc1)NC(=O)[C@](C)(CC)NC(=O)[C@H]1C[C@H](O)CN1C(=O)[C@H](CO)NC(C)=O)C(=O)N[C@@H](CC(N)=O)C(=O)N[C@@H](CCCCN)C(=O)NC(C)(C)C(=O)N[C@H](C(=O)N[C@@H](CCCNC(=N)N)C(=O)N[C@@H](CCC(N)=O)C(=O)N[C@@H](CCCNC(=N)N)C(=O)N[C@@H](CC1CCCCC1)C(N)=O)[C@@H](C)O	0.41
CC[C@](C)(NC(=O)[C@H]1CCCN1C(=O)[C@H](CO)NC(C)=O)C(=O)N[C@@H](Cc1ccncc1)C(=O)N[C@@H](CC1CCCCC1)C(=O)NC(C)(C)C(=O)N[C@@H](CC(N)=O)C(=O)N[C@@H](CCCCN)C(=O)NC(C)(C)C(=O)N[C@H](C(=O)N[C@@H](CCCNC(=N)N)C(=O)N[C@@H](CCC(N)=O)C(=O)N[C@@H](CCCNC(=N)N)C(=O)N[C@@H](CC1CCCCC1)C(N)=O)[C@@H](C)O	0.5

Query block: Let me know recorded Vd for CC[C@](C)(NC(=O)[C@H]1C[C@H](O)CN1C(=O)[C@H](CO)NC(=O)c1c[nH]cn1)C(=O)N[C@@H](Cc1ccncc1)C(=O)N[C@@H](CC1CCCCC1)C(=O)N[C@@H](CC(C)(C)C)C(=O)N[C@@H](CC(N)=O)C(=O)N[C@@H](CCCCN)C(=O)NC(C)(C)C(=O)N[C@H](C(=O)N[C@@H](CCCNC(=N)N)C(=O)N[C@@H](CCC(N)=O)C(=O)N[C@@H](CCCNC(=N)N)C(=O)N[C@@H](CC1CCCCC1)C(N)=O)[C@@H](C)O , thanks.
Result block: 0.293
